Molecular target: Lysine-specific demethylase 4A (Homo sapiens)
Test: qHTS Assay for Inhibitors of JMJD2A-Tudor Domain; also: nearly all actives have a fitted effect of over 50% in size
Settings: AlphaScreen JMJD2A-Tudor / H3K4me3 peptide binding; series mostly up to 114 µM
Text: JMJD2A is a jumonji-domain-containing lysine demethylase that uses Fe(II) together with 2-OG to effect oxidative demethylation of histones. Methylation is one of many […] modification that affect epigenetic transcription. […] A quantitative high throughput AlphaScreen has been developed to identify small molecule inhibitors based on a protocol published by NCGC and SGC [4]. […] [2] Yasgar, et al. Compound Management for Quantitative High-Throughput Screening. […]
Among all 390,000 compounds or so, about 17,000 (4.4%) were called active. Roughly 8% stayed inconclusive and do not appear here. Calls follow the shape of the dose curve; as a rule, active = well fitted inhibition curve with a large enough effect; inconclusive = small, poorly fitted or top-dose-only effect; inactive = no such curve, though single readings can be large or run the other way. What follows is part of a selection rich in actives, with near analogues and random picks from the rest.
Please reply with one of these outcomes: 1 (active), 0 (inactive)

Observe how each entry below is paired with its result.
{"Compound": "COc1ccc(-c2c3c(=O)n(C)c(=O)n(C)c3c3c(C)nc4ccccc4n23)cc1", "Category Label": 0}
{"Compound": "CC1(C)NC(=O)N(CCOc2cccc(Oc3ccccc3)c2)C1=O", "Category Label": 0}
{"Compound": "COc1cc2nc(SCc3ccc(F)cc3)n3nc(CCn4c(C)nc5ccccc54)nc3c2cc1OC", "Category Label": 0}
{"Compound": "CCCSc1ncccc1C(=O)O", "Category Label": 0}
{"Compound": "CC(=O)Nc1cc(C(=O)NCc2ccc(F)cc2Cl)ccc1Sc1ccc(Cl)cc1", "Category Label": 0}
{"Compound": "Cn1c(SCc2nc3ccccc3s2)nnc1-c1ccc2c(c1)OCO2", "Category Label": 1}
{"Compound": "Cc1ccc(-c2nn3c(=O)cc(CN4CCN(S(=O)(=O)c5ccc(Cl)cc5)CC4)nc3s2)cc1", "Category Label": 0}
{"Compound": "COc1ccc(OCCn2ccnc2C)cc1", "Category Label": 1}
{"Compound": "O=C(NNC(=O)c1ccc(-c2ccccc2)cc1)Nc1ccccc1", "Category Label": 0}
{"Compound": "Cc1ccccc1CSCCNC(=O)C1CCN(S(=O)(=O)Cc2ccccc2)CC1", "Category Label": 0}

We now examine a further compound.
Hi, sorry to bother you, what did the test record for COc1c(O)ccc2c1CN1CCc3cc4c(cc3C1C2)OCO4 (stereo unspecified) ?
1

====

Target: Lysine-specific demethylase 4A (Homo sapiens)
Assay: qHTS Assay for Inhibitors of JMJD2A-Tudor Domain; also: nearly all actives have a fitted effect of over 50% in size
Settings: AlphaScreen JMJD2A-Tudor / H3K4me3 peptide binding; series mostly up to 114 µM
The whole screen tested about 390,000 compounds, of which about 17,000 (4.4%) were called active. Not shown: some 8% with an inconclusive outcome. The call rests on the fitted dose curve; in most records, active means well fitted inhibition curve with a large enough effect; inconclusive means small, poorly fitted or top-dose-only effect; inactive means no such curve, though single readings can be large or run the other way. The list comes from a sample in which actives are over-represented; it also holds close analogues and randomly drawn compounds.
Please reply with one of these outcomes: true for active, false for inactive

{"Compound": "CCOc1ccc2oc(=O)cc(CN3CCN(C(=O)c4ccc(F)cc4)CC3)c2c1", "Category Label": "false"}
{"Compound": "CC1CCN(S(=O)(=O)c2ccc3c(c2)N(CC(=O)NCc2ccccc2Cl)C(=O)CO3)CC1", "Category Label": "false"}
{"Compound": "CN(c1ccccc1)S(=O)(=O)c1ccc2[nH]c(=O)[nH]c2c1", "Category Label": "false"}

Hi, sorry to bother you, what did the test record for CCOc1ccccc1NC(=O)C1=C(C)Nc2ncnn2C1c1ccc(NC(C)=O)cc1 (stereo unspecified) ?
false

Subsequent entry: "COc1ccc(-c2ccc(CNCCCN3CCOCC3)o2)cc1Cl"
false

Subsequent entry: "c1ccc(-c2ccccc2OCCN2CCCCC2)cc1"
true

====

Biological target: Lysine-specific demethylase 4A (Homo sapiens) (UniProt O75164)
Sequence (O75164 whole entry, looked up, the tested form may be a part): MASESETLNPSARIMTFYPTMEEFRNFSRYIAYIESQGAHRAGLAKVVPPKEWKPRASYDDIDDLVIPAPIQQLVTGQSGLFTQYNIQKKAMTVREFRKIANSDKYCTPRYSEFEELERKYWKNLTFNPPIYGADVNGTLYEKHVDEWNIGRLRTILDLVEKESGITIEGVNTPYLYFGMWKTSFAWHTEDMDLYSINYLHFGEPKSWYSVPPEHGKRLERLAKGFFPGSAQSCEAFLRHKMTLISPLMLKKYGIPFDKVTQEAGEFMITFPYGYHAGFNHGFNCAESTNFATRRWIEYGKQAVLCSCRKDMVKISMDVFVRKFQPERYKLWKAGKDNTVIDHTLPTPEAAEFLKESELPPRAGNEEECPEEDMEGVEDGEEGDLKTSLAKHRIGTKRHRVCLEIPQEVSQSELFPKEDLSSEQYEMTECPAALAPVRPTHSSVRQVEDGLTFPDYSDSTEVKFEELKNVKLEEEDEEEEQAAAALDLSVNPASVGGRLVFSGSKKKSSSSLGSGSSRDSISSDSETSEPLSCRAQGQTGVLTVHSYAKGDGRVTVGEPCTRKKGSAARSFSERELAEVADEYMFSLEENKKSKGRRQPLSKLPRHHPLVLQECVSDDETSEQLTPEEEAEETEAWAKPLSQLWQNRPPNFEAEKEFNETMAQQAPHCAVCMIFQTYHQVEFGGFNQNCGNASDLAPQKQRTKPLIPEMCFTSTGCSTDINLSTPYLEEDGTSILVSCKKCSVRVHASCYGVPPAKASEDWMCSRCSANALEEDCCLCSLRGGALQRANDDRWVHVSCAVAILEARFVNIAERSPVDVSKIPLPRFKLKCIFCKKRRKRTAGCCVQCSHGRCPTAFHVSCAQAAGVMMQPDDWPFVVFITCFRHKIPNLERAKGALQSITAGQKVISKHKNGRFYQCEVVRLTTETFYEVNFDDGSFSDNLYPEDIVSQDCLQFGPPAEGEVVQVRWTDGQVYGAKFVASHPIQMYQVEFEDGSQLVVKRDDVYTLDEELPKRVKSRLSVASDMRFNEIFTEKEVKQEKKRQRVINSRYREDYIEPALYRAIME
Test: qHTS Assay for Inhibitors of JMJD2A-Tudor Domain; also: nearly all actives have a fitted effect of over 50% in size
Conditions: AlphaScreen JMJD2A-Tudor / H3K4me3 peptide binding; series mostly up to 114 µM
Among all 390,000 compounds or so, about 17,000 (4.4%) were called active. About 8% were inconclusive and are not listed. The call rests on the fitted dose curve; in most records, active means well fitted inhibition curve with a large enough effect; inconclusive means small, poorly fitted or top-dose-only effect; inactive means no such curve, though single readings can be large or run the other way. The full list was thinned out, with actives kept by preference.
Please reply with one of these outcomes: active, inactive

Hi, sorry to bother you, what did the test record for "O=C(Nc1nnc(-c2ccccc2F)s1)c1ccccc1F" ?
inactive

Subsequent entry: Cc1ccc(NC(=O)C(=O)NCC(c2cccnc2)N2CCOCC2)cc1 (stereo not given)
inactive

Subsequent entry: "CCc1ccc(-c2cc(C(=O)NN3CCN(C)CC3)c3ccccc3n2)cc1"
inactive

Subsequent entry: "Cc1ccc(C)c(Nc2nnc(-c3ccc(C)c(S(=O)(=O)N4CCCCC4)c3)c3ccccc23)c1"
inactive

Subsequent entry: Cc1cccc(N2CCN(C(=O)CCn3c(=O)c4cccn4c4cccnc43)CC2C)c1 (stereo not given)
inactive

Subsequent entry: "O=C(NC(=O)c1ccccc1)Nc1ccccc1O"
inactive

Subsequent entry: "CCCc1cc(=S)n2c([nH]c3ccccc32)c1C#N"
active

Subsequent entry: COc1ccc(/C(O)=C2\C(=O)C(=O)N(Cc3ccco3)C2c2ccc(OC)cc2OC)cc1 (stereo not given)
active

Subsequent entry: "C/C(=N/NC(=O)c1ccn(C)n1)c1ccncc1"
inactive

Subsequent entry: "COc1ccc(Cl)cc1NC(=O)c1sc2nc3c(cc2c1N)CN(C)CC3"
inactive

Subsequent entry: "CCc1ccccc1OCCSc1nc(-c2cccs2)nc2cc(=O)[nH]n12"
inactive

Subsequent entry: "O=c1cc2nc(-c3ccccc3)nc(SCCOc3ccc(Cl)cc3)n2[nH]1"
active

Subsequent entry: "COc1ccc(C(=O)N/N=C(\C)CC(=O)Nc2ccc(Cl)cn2)cc1"
inactive

Subsequent entry: "CCN1CCc2nc3sc(C(=O)Nc4ccccc4OC(F)(F)F)c(N)c3cc2C1"
inactive

====

Target: Lysine-specific demethylase 4A (Homo sapiens)
Assay: qHTS Assay for Inhibitors of JMJD2A-Tudor Domain; also: nearly all actives have a fitted effect of over 50% in size; also: potency is read from the fitted curve at half-maximal effect
Settings: AlphaScreen JMJD2A-Tudor / H3K4me3 peptide binding; series mostly up to 114 µM
Among all 390,000 compounds or so, about 17,000 (4.4%) were called active. Another 8% or so got no clear call; they are omitted. For the sample, actives were picked, then their nearest neighbours and some compounds at random.
Experimental Readout: Potency

Solved cases below.
{"Compound": "CCC(=O)Nc1ccc(C)cc1-c1nc2ccccc2n(Cc2ccccc2)c1=O", "Potency": "inactive"}
{"Compound": "CCOc1ccc(S(=O)(=O)N2CCCCCC2)c2ccccc12", "Potency": "inactive"}
{"Compound": "CCOC(=O)c1nnn(CC(=O)NC(=O)Nc2ccccc2F)c1C(=O)OCC", "Potency": "inactive"}
{"Compound": "CCN(CC)S(=O)(=O)c1ccc2c(c1)N(CC(=O)NCc1ccccc1)C(=O)CS2", "Potency": "inactive"}
{"Compound": "CN1C(=O)c2[nH]nc(-c3ccc(F)cc3)c2C1c1ccccn1 (configuration not stated)", "Potency": "inactive"}

Entry under review: "CCOC(=O)c1ccc(NC(=O)Cn2c(=O)cc(C)c3c(C)nn(-c4cccc(F)c4)c32)cc1" . Reported Potency?
inactive

Subsequent entry: "COCCNC(=O)CSc1c(C)cnc2c1c(=O)n(C)c(=O)n2C"
inactive

Subsequent entry: COc1ccc(NC(=O)CSC2=Nc3ccccc3C3=NC(CC(=O)NCc4ccccc4OC)C(=O)N23)cc1Cl (configuration not stated)
inactive

Subsequent entry: "COc1ccccc1OCCCCCCN1CCN(C)CC1"
inactive

====

Target: Lysine-specific demethylase 4A (Homo sapiens)
Test: qHTS Assay for Inhibitors of JMJD2A-Tudor Domain; also: nearly all actives have a fitted effect of over 50% in size
Settings: AlphaScreen JMJD2A-Tudor / H3K4me3 peptide binding; series mostly up to 114 µM
Screen size: about 390,000 compounds; about 17,000 (4.4%) were called active. Inconclusive results (about 8%) are left out. Calls come from the whole dose curve; as a rule, active = well fitted inhibition curve with a large enough effect; inconclusive = small, poorly fitted or top-dose-only effect; inactive = no such curve, though single readings can be large or run the other way. What follows is part of a selection rich in actives, with near analogues and random picks from the rest.
Please reply with one of these outcomes: active, inactive

Observe how each entry below is paired with its result.
{"Molecule": "COc1cc(Cl)c(S(=O)(=O)N2CCN(Cc3ccc4c(c3)OCO4)CC2)cc1Cl", "Target Or Test System": "Lysine-specific demethylase 4A (Homo sapiens)", "Category Label": "inactive"}
{"Molecule": "CCOc1ccc(NC(=O)C(=O)NCCc2csc3nc(-c4ccccc4F)nn23)cc1", "Target Or Test System": "Lysine-specific demethylase 4A (Homo sapiens)", "Category Label": "inactive"}
{"Molecule": "C=CCn1c(SCc2cccc(F)c2)nc2cc(C(=O)N3CCC(C(N)=O)CC3)ccc2c1=O", "Target Or Test System": "Lysine-specific demethylase 4A (Homo sapiens)", "Category Label": "inactive"}
{"Molecule": "Cc1cccc(N2CCN(C3=C(c4ccccc4)C(=O)c4ccccc43)CC2)c1C", "Target Or Test System": "Lysine-specific demethylase 4A (Homo sapiens)", "Category Label": "active"}
{"Molecule": "Cc1ccc(OCCCC(=O)Nc2ccc(N3CCOCC3)cc2)cc1", "Target Or Test System": "Lysine-specific demethylase 4A (Homo sapiens)", "Category Label": "inactive"}

Hi, sorry to bother you, what did the test record for "COC(=O)c1ccccc1NC(=O)Cn1c(=O)n(-c2cccc(C(F)(F)F)c2)c(=O)c2c(C)c(C)sc21" ?
inactive

Subsequent entry: CCCC(=O)C1=C(N(C)c2ccccc2)CC(C)(C)C(C(=O)OC)C1=O (stereo not drawn)
inactive

Subsequent entry: CCOc1ccc(C2c3[nH]c4ccccc4c3CCN2Cc2cn(CC)nc2C)cc1 (stereo not drawn)
inactive
